Each entry below carries its recorded pIC50.
Biological target: JAK2 (Homo sapiens)
Construct: The kinase domain of humanJAK2 was amplified from U937mRNA; His tag (from pFastBac HTc vector; nickel chelate purification) (N); made in house; host or cells: baculovirus; virus made in Sf9, large-scale expression in High Five insect cells
Sequence (O60674 849-1124 limits assumed): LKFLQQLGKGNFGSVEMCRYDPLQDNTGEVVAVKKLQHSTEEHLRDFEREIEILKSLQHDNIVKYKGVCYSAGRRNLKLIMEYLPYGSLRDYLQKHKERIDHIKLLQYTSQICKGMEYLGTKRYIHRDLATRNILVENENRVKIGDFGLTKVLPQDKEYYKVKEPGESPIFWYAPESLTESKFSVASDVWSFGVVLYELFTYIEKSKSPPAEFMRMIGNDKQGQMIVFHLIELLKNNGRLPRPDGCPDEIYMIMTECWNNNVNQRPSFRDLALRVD
Assay: JAK2 kinase domain capture-based ELISA kinase assay
Type: biochemical
Details: Table 6; inhibit 50% of activity at 50 μM
pIC50: −log10 of the molar value.

CCN(CCO)c1ccc(Nc2nc(-c3cc(C(F)(F)F)cc(C(F)(F)F)c3)cn3ccnc23)cc1; > 4.30

**Q:** Name the recorded pIC50 of the compound listed here: `O=C(O)c1ccc(-c2cn3ccnc3c(N3CCN(c4ccccn4)CC3)n2)cc1`
**A:** < 4.30

**Q:** Given the compound `Cc1ccc(Nc2nc(-c3ccccc3Cl)cn3ccnc23)cc1NS(C)(=O)=O` , write its reported pIC50.
**A:** > 4.30

**Q:** For `COc1cc(-c2cn3ccnc3c(Nc3ccccc3)n2)cc(OC)c1OC` , write its pIC50.
**A:** > 4.30

**Q:** Given the compound `O=C(O)CCc1ccc(-c2cn3ccnc3c(NCCc3ccncc3)n2)cc1` , write its reported pIC50.
**A:** < 4.30

**Q:** Check the records and state pIC50 for `CCCNc1nc(-c2cccc(N)c2)cn2ccnc12`
**A:** < 4.30

**Q:** Note pIC50 for the compound shown: `c1cncc(-c2cn3ccnc3c(NCCc3ccncc3)n2)c1`
**A:** < 4.30

**Q:** // Input: `O=C(O)CCc1ccc(-c2cn3ccnc3c(NCc3ccco3)n2)cc1` . Output its pIC50 only.
**A:** < 4.30

**Q:** Return pIC50 (reported value) for this compound: CCN(CCO)c1ccc(Nc2nc(-c3cccc4ccccc34)cn3ccnc23)cc1 [drawing 94]
**A:** > 4.30

**Q:** Please give measured pIC50 of the following entry: `c1ccc(Nc2nc(-c3ccco3)cn3ccnc23)cc1`
**A:** > 4.30

====

Molecular target: TYK2 (Homo sapiens, UniProt P29597)
Construct: The kinase domain of humanTYK2 was amplified from A549 mRNA; His tag (from pBlueBacHis2A vector; nickel chelate purification) (N); made in house; host or cells: baculovirus; virus made in Sf9, large-scale expression in High Five insect cells
Sequence (P29597 897-1176 limits assumed): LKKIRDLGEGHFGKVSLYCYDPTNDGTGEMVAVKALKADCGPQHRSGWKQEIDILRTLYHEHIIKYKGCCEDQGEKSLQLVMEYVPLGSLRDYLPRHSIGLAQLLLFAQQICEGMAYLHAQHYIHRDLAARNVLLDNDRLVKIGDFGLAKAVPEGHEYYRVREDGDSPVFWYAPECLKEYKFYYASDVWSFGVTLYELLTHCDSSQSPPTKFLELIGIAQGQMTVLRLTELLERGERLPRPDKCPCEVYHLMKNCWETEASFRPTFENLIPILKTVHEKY
Assay: TYK2 kinase domain capture-based ELISA kinase assay
Type: biochemical
Conditions: Table 6; inhibit 50% of activity at 50 μM
pIC50: −log10 of the molar value.
// reported pIC50 per item

Look over these answered cases.
CCCC/C=C/c1cn2ccnc2c(Nc2ccc(OC)nc2)n1; < 4.30
CCC(CO)Nc1nc(-c2ccco2)cn2ccnc12 (stereo not shown); < 4.30
CN(C)C(=O)COc1cccc(Nc2nc(-c3cccc(N)c3)cn3ccnc23)c1; > 4.30
CC(C)[C@H](CO)Nc1nc(-c2ccc(C(=O)O)cc2)cn2ccnc12; < 4.30
Brc1cn2ccnc2c(Nc2ccccc2)n1; > 4.30

**Q:** Indicate the recorded pIC50 value for this compound: `Cc1ccc(S(=O)(=O)Nc2ccc(Nc3nc(-c4cccc(C(=O)NCCN(C)C)c4)cn4ccnc34)cc2)cc1`
**A:** < 4.30

**Q:** Give me measured pIC50, please, for this compound: `CCN(CCO)c1ccc(Nc2nc(-c3cc(C(F)(F)F)cc(C(F)(F)F)c3)cn3ccnc23)cc1`
**A:** < 4.30

**Q:** Recall and state the measured pIC50 for `c1cncc(CCNc2nc(-c3ccco3)cn3ccnc23)c1` .
**A:** < 4.30

**Q:** Please report pIC50 for the following compound: `CCN(CCO)c1ccc(Nc2nc(-c3ccccc3Cl)cn3ccnc23)cc1`
**A:** > 4.30

**Q:** Supply pIC50 value. Item: `c1ccc(Nc2nc(-c3cccnc3)cn3ccnc23)cc1`
**A:** > 4.30

**Q:** For the compound `COc1ccc(Nc2nc(-c3ccccc3Cl)cn3ccnc23)cn1` , give its reported pIC50.
**A:** < 4.30

**Q:** Complete the entry with pIC50 for `NCc1cccc(-c2cn3ccnc3c(Nc3ccccc3)n2)c1`
**A:** > 4.30

**Q:** // Input: `OCCc1ccc(Nc2nc(-c3ccccc3F)cn3ccnc23)cc1` . Output its pIC50 only.
**A:** > 4.30

**Q:** Query pIC50 for `O=C(NCCO)c1ccc(-c2cn3ccnc3c(Nc3ccccc3)n2)cc1`
**A:** > 4.30

**Q:** Annotate the compound `Cc1ccc(S(=O)(=O)Nc2ccc(Nc3nc(-c4ccc(CCC(=O)O)cc4)cn4ccnc34)cc2)cc1` with its measured pIC50.
**A:** > 4.30
